- Target Desc: Full-length glucokinase (beta cell isoform) (Homo sapiens)
- Construct: Full-length glucokinase (beta cell isoform) was His-tagged at N-terminus; His tag (N); made in house
- Experiment Notes: Glucokinase biochemical assay (PK/LDH-coupled, NADH depletion at 340 nm): % activation, EC50, % max activation
- Run Parameters: 10 uM compound; 5 mM glucose; % Activation=(Va/Vo−1)×100; read-out: % Activation at 10 uM
Observed Property: activation at 10 µM (%)

Compound | Unit | activation at 10 µM
Cn1ccc(NC(=O)c2cc(Oc3ccc(S(C)(=O)=O)cc3)c3c(c2)OC(CO)C3)n1 (centres unmarked) | % | 113
Cc1cc2c(Oc3ccc(S(C)(=O)=O)cc3)cc(C(=O)Nc3ccn(C)n3)cc2s1 | % | 129
COCC1(C)Cc2c(Oc3ccc(C(=O)N(C)C)c(F)c3)cc(C(=O)Nc3ccn(C)n3)cc2O1 (centres unmarked) | % | 121
Cc1ccc(NC(=O)c2cc(Oc3ccc(S(C)(=O)=O)cc3)c3ccoc3c2)nc1 | % | 72.7
Cc1ccc(NC(=O)c2cc(Oc3ccc(S(C)(=O)=O)cc3)c3ocnc3c2)nc1 | % | 47
COc1ccnc(NC(=O)c2cc(Oc3ccc(S(C)(=O)=O)cc3)c3cc(C)oc3c2)c1 | % | 63.6

A. COc1ccnc(NC(=O)c2cc(Oc3ccc(S(=O)(=O)N4CCC4)cc3)c3cc(C)oc3c2)c1
B. Cn1ccc(NC(=O)c2cc(Oc3ccc(S(C)(=O)=O)cc3)c3cc(CN4CCCC4=O)oc3c2)n1
Parameter metric = activation at 10 µM. Return the lower-valued option from A and B . // respond with label for picked entry
A
(A: 46.9%, B: 91.3%)

###

- Target Desc: Full-length glucokinase (beta cell isoform) (Homo sapiens, UniProt P35557)
- Construct: Full-length glucokinase (beta cell isoform) was His-tagged at N-terminus; His tag (N); made in house
- Sequence (P35557 whole entry, species assumed, canonical isoform): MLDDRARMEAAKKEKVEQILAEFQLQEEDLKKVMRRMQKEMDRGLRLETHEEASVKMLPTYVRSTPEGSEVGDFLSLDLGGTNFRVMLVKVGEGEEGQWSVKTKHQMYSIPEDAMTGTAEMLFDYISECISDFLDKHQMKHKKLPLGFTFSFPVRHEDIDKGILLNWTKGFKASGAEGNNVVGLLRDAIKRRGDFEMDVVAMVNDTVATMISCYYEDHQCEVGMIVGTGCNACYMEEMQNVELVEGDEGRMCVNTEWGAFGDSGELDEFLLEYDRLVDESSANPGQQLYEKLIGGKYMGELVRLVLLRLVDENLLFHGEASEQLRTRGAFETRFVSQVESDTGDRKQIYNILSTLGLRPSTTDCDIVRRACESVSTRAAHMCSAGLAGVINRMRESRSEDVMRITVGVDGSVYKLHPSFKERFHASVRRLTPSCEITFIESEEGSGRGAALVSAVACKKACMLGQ
- Experiment Notes: Glucokinase biochemical assay (PK/LDH-coupled, NADH depletion at 340 nm): % activation, EC50, % max activation
- Run Parameters: 5 mM glucose; GK activation; read-out: EC50
Observed Property: EC50 (nM)

Reference set (5 entries):
Compound | Observed Property | Unit | Quantitative Result
CNC(=O)c1ccc(Oc2cc(C(=O)Nc3ccn(C)n3)cc3c2CC(C)(C)O3)cc1F | EC50 | nM | 370
CN1CCN(C(=O)c2ccc(Oc3cc(C(=O)Nc4ccn(C)n4)cc4c3CC(C)(C)O4)cc2F)CC1 | EC50 | nM | 650
COCC1Cc2c(Oc3ccc(C(=O)N(C)C)cc3)cc(C(=O)Nc3ccn(C)n3)cc2O1 (centres unmarked) [Example 211] | EC50 | nM | 1300
Cn1ccc(NC(=O)c2cc(OCCCC#N)c3c(c2)OC(C)(C)C3)n1 | EC50 | nM | 9700
Cc1ccc(NC(=O)c2cc(Oc3ccc(S(C)(=O)=O)cc3)cc3c2CCO3)nc1 | EC50 | nM | 9600

A. Cn1ccc(NC(=O)c2cc(Oc3ccc(C(=O)N4CC(O)C4)cc3F)c3c(c2)OC(C)(C)C3)n1
B. CN(C)S(=O)(=O)c1ccc(Oc2cc(C(=O)Nc3cnn(C)n3)cc3c2CC(C)(C)O3)cc1F
C. Cn1ccc(NC(=O)c2cc(Oc3cccc(S(C)(=O)=O)c3)c3c(c2)OC(C)(C)C3)n1
Sequence the entries by EC50, beginning with the highest number. The reply should contain the labels ordered as requested.
C, A, B

###

- Target Desc: Full-length glucokinase (beta cell isoform) (Homo sapiens, UniProt P35557)
- Construct: Full-length glucokinase (beta cell isoform) was His-tagged at N-terminus; His tag (N); made in house
- Experiment Notes: Glucokinase biochemical assay (PK/LDH-coupled, NADH depletion at 340 nm): % activation, EC50, % max activation
- Run Parameters: compound at 10 uM; 5 mM glucose, 1 mM ATP, room temperature; read-out: % Activation at 10 uM
Observed Property: activation at 10 µM (%)

Reference set (5 entries):
Compound | Target Desc | activation at 10 µM / %
CC(C)CN1Cc2c(Oc3ccc(S(C)(=O)=O)cc3)cc(C(=O)Nc3ccn(C)n3)cc2C1=O | Full-length glucokinase (beta cell isoform) (Homo sapiens, UniProt P35557) | 82
Cc1ccc(NC(=O)c2cc(Oc3ccc(S(C)(=O)=O)cc3)c3ccn(C)c(=O)c3c2)nc1 | Full-length glucokinase (beta cell isoform) (Homo sapiens, UniProt P35557) | 32
Cn1ccc(NC(=O)c2cc(Oc3ccc(C(=O)N4CC(F)C4)nc3)c3c(c2)OC(C)(C)C3)n1 | Full-length glucokinase (beta cell isoform) (Homo sapiens, UniProt P35557) | 213
Cn1ccc(NC(=O)c2cc(Oc3ccc(S(C)(=O)=O)cc3)c3c(c2)C(=O)N(C2CC2)C3)n1 | Full-length glucokinase (beta cell isoform) (Homo sapiens, UniProt P35557) | 78.8
CNC(=O)c1c(F)cc(Oc2cc(C(=O)Nc3ccn(C)n3)cc3c2CC(C)(C)O3)cc1F | Full-length glucokinase (beta cell isoform) (Homo sapiens, UniProt P35557) | 192

1. COCCN1Cc2c(Oc3ccc(S(C)(=O)=O)cc3)cc(C(=O)Nc3ccc(C)cn3)cc2C1=O
2. Cc1ccc(NC(=O)c2cc(Oc3ccc(S(C)(=O)=O)cc3)c3c(c2)C(=O)N(C2CC2)C3)nc1
3. Cn1ccc(NC(=O)c2cc(Oc3cnc(C(=O)N4CCC4)cn3)c3c(c2)OC(C)(C)C3)n1
4. Cc1ccc(NC(=O)c2cc(OCc3ccccc3)c3c(c2)C(=O)N(C2CC2)C3)nc1
Sequence the entries by activation at 10 µM, beginning with the highest number. The reply should contain the labels ordered as requested.
3, 2, 1, 4

I. Cc1ccc(NC(=O)c2cc(Oc3ccc(S(C)(=O)=O)cc3)c3c(c2)C(=O)N(CC(C)C)CC3)nc1
II. Cn1ccc(NC(=O)c2cc(Oc3cnc(C(=O)N4CC(F)C4)c(F)c3)c3c(c2)OC(C)(C)C3)n1
III. Cc1ccc(NC(=O)c2cc(Oc3ccc(S(=O)(=O)C4CC4)c(F)c3)c3c(c2)OC(C)(CO)C3)nc1 (single isomer, unassigned; (+))
IV. CCN1Cc2c(Oc3ccc(S(C)(=O)=O)cc3)cc(C(=O)Nc3ccn(C)n3)cc2C1=O
Which order do these items take when sorted by rising activation at 10 µM? List them. The reply should contain the labels ordered as requested.
I, IV, III, II

###

- Target Desc: Full-length glucokinase (beta cell isoform) (Homo sapiens)
- Construct: Full-length glucokinase (beta cell isoform) was His-tagged at N-terminus; His tag (N); made in house
- Experiment Notes: Glucokinase biochemical assay (PK/LDH-coupled, NADH depletion at 340 nm): % activation, EC50, % max activation
- Run Parameters: 10 uM compound; 5 mM glucose; % Activation=(Va/Vo−1)×100; read-out: % Activation at 10 uM
Observed Property: activation at 10 µM (%)

Compound | Target Desc | Quantitative Result
Cc1ccc(NC(=O)c2cc(Oc3ccc(S(C)(=O)=O)cc3)c3oc(C)cc3c2)nc1 | Full-length glucokinase (beta cell isoform) (Homo sapiens) | 42.6
Cc1ncccc1COc1cc(C(=O)Nc2ccn(C)n2)cc2c1CC(C)(C)O2 | Full-length glucokinase (beta cell isoform) (Homo sapiens) | 143
Cn1ccc(NC(=O)c2cc(Oc3ccc(S(C)(=O)=O)c(F)c3)c3c(c2)OC(C)(C)C3)n1 | Full-length glucokinase (beta cell isoform) (Homo sapiens) | 156
Cc1ccc(NC(=O)c2cc(OC(C)C)cc3oc(C(C)C)cc23)nc1 | Full-length glucokinase (beta cell isoform) (Homo sapiens) | 16.6
Cn1ccc(NC(=O)c2cc(Oc3ccc(C(=O)N4CCCC4)cc3)c3c(c2)OC(C)(C)C3)n1 | Full-length glucokinase (beta cell isoform) (Homo sapiens) | 130
CCOc1cc(C(=O)Nc2ccn(C)n2)cc2c1CC(C)(C)O2 | Full-length glucokinase (beta cell isoform) (Homo sapiens) | 87

P. Cn1ccc(NC(=O)c2cc(Oc3ccc(S(=O)(=O)C4CC4)cc3)c3c(c2)OC(C)(C)C3)n1
Q. Cn1ncc(NC(=O)c2cc(Oc3ccc(S(C)(=O)=O)cc3)cc3c2CC(C)(C)O3)n1
R. Cn1ncc(NC(=O)c2cc(Oc3ccc(S(C)(=O)=O)cc3)c3cc(C(=O)N4CCC4)oc3c2)n1
Sequence the entries by activation at 10 µM, beginning with the highest number. The reply should contain the labels ordered as requested.
P, Q, R
(P: 185%, Q: 51.4%, R: 16.7%)

1. Cc1cc2cc(C(=O)Nc3ccn(C)n3)cc(Oc3ccc(C(=O)N(C)C)cc3)c2s1
2. Cc1ccc(NC(=O)c2cc(Oc3ccc(C(=O)N(C)C)c(F)c3)c3c(c2)OC(C)(CO)C3)nc1 (stereo not shown)
3. Cn1ccc(NC(=O)c2cc(Oc3ccc(C(=O)N4CC(F)(F)C4)c(F)c3)c3c(c2)OC(C)(C)C3)n1
4. CCS(=O)(=O)c1ccc(Oc2cc(C(=O)Nc3cnn(C)n3)cc3c2CC(C)(C)O3)cc1
Sequence the entries by activation at 10 µM, beginning with the highest number. The reply should contain the labels ordered as requested.
4, 3, 1, 2

I. Cn1ccc(NC(=O)c2cc(Oc3ccc(C(=O)N4CCOCC4)cc3)c3c(c2)OC(C)(C)C3)n1
II. Cc1cc(NC(=O)c2cc(Oc3ccc(C(=O)N(C)C)cc3)c3c(c2)OC(C)(C)C3)no1
Parameter metric = activation at 10 µM. Return the lower-valued option from I and II . // respond with label for picked entry
II
(II: 36.3%, I: 140%)
